- Test system: Enterobacter cloacae
- assay explanation: Antimicrobial activity against Enterobacter cloacae CHE-2 harboring blaGES-5 and blaSHV-5 gene by agar dilution method
- Format: functional
Exercise: for every item that follows, state its recorded MIC.

Query: Report MIC for `C[C@@H](O)[C@H]1C(=O)N2C(C(=O)O)=C(S[C@@H]3CN[C@H](C(=O)N(C)C)C3)[C@H](C)[C@H]12`
Reply: > 32 µg/mL

Query: Report MIC for C[C@@H](O)[C@H]1C(=O)N2C(C(=O)O)=C(SCCNC=N)C[C@H]12 [IMIPENEM ANHYDROUS]
Reply: > 32 µg/mL

Query: Report MIC for `CC(C)(O/N=C(\C(=O)N[C@@H]1C(=O)N2C(C(=O)[O-])=C(C[n+]3ccccc3)CS[C@H]12)c1csc(N)n1)C(=O)O`
Reply: > 512 µg/mL

Query: Report MIC for `CC1(C)S[C@@H]2[C@H](NC(=O)[C@H](N)c3ccc(O)cc3)C(=O)N2[C@H]1C(=O)O`
Reply: > 512 µg/mL

Query: Report MIC for `C[C@@H](O)[C@H]1C(=O)N2C(C(=O)O)=C(S[C@@H]3CN[C@H](C(=O)Nc4cccc(C(=O)O)c4)C3)[C@H](C)[C@H]12`
Reply: > 32 µg/mL

Query: Report MIC for `CO[C@@]1(NC(=O)Cc2cccs2)C(=O)N2C(C(=O)O)=C(COC(N)=O)CS[C@@H]21`
Reply: > 512 µg/mL
